# TARGET_OR_TEST_SYSTEM: N-type calcium channel (NTCC) (Homo sapiens, UniProt Q00975)
# Construct: host or cells: IMR32 cells differentiated with dibutyryl cAMP and bromodeoxyuridine
# Sequence (Q00975 whole entry): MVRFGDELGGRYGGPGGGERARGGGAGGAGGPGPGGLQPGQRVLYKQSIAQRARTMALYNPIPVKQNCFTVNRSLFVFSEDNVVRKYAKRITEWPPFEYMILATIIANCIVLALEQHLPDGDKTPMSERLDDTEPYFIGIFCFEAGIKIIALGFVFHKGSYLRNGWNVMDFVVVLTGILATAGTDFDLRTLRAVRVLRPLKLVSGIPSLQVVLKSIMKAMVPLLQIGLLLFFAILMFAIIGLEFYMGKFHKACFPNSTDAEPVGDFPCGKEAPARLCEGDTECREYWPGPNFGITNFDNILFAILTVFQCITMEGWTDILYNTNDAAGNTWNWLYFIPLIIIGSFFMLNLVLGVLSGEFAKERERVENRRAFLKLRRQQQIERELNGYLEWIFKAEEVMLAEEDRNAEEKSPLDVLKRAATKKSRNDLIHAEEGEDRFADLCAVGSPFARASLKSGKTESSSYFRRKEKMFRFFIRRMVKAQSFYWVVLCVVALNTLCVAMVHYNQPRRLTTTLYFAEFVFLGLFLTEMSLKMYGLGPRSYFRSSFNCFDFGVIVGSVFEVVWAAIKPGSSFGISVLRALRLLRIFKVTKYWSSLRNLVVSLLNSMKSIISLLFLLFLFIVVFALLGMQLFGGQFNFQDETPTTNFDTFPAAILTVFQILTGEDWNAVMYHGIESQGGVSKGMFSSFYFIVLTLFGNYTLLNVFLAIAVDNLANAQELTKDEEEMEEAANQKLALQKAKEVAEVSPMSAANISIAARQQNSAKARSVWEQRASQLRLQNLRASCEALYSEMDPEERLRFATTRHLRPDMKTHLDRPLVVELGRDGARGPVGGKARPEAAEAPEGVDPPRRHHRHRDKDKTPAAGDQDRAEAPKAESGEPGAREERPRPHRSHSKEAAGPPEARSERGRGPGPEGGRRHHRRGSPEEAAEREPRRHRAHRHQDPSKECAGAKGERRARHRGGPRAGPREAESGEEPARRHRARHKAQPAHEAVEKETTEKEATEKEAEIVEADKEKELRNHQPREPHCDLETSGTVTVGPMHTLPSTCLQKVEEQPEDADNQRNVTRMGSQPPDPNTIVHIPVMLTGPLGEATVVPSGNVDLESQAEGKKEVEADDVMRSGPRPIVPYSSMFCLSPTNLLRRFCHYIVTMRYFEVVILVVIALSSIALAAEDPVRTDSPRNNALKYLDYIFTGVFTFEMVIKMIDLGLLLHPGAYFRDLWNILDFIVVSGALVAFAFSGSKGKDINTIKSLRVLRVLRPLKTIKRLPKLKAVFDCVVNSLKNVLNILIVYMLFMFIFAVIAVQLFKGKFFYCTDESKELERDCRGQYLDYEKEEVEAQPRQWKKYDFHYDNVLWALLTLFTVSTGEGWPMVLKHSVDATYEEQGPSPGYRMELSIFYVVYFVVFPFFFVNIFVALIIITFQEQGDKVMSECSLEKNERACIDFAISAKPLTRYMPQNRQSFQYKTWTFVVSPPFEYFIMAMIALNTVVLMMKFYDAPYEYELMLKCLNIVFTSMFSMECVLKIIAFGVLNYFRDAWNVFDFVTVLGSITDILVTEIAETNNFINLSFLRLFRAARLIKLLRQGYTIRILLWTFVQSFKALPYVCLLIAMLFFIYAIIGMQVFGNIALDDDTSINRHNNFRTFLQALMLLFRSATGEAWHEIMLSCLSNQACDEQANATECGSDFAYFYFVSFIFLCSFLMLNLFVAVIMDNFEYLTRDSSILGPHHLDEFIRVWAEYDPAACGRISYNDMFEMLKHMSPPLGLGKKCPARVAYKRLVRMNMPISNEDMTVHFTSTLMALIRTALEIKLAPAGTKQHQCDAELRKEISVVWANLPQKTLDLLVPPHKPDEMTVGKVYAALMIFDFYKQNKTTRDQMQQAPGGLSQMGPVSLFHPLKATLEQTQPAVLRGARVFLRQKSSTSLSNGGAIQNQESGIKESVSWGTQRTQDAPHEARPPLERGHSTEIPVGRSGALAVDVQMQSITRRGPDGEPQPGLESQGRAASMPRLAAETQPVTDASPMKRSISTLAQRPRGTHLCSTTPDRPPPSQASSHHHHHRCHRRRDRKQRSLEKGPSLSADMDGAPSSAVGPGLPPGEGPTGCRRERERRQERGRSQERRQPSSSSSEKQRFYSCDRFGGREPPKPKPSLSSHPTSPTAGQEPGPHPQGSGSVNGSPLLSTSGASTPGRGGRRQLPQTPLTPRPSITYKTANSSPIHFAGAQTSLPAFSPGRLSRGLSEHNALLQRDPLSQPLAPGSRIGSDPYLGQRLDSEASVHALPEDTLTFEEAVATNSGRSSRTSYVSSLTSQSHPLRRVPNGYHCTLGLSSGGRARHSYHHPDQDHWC
# PROCEDURE_SUMMARY: FLIPR calcium mobilization assay for N-type calcium channel (differentiated IMR32 cells)
# Format: cell-based
# TEST_PARAMETERS: calcium mobilization in vitro assay, N-type calcium channel blockers
Where a name gives a salt, the structure may show the parent alone.
QUANTITY_MEASURED: IC50 (nM)

Take a look at these entries with their results.
CC(C)C[C@H](N)C(=O)N1CCC(=NOCc2cccc(C(F)(F)F)c2)CC1 [Example 8, hydrochloride] | 690
CCCCCC(C)ON=C1CCN(S(=O)(=O)c2cccc(C(F)(F)F)c2)CC1 (stereo not shown) | 80
CCCCc1ccc(S(=O)(=O)N2CCC(=NOCc3cccc(C(F)(F)F)c3)CC2)cc1 | 430

1. N#Cc1cc(CON=C2CCN(C(c3ccc(F)cc3)c3ccc(F)cc3)CC2)ccc1F [Example 182, hydrochloride]
2. O=C(CCC(c1ccc(F)cc1)c1ccc(F)cc1)N1CCC(=NOCc2ccc(C(F)(F)F)cc2)CC1
3. O=C(CC(=O)N1CCC(=NOC(c2ccc(F)cc2)c2ccc(F)cc2)CC1)Nc1ccc(F)cc1F
Data request: Sort low-to-high on IC50, please. Answer by naming the labels in the order asked.
Data returned: 2, 1, 3
(2: 330 nM, 1: 690 nM, 3: 1100 nM)

----------
# TARGET_OR_TEST_SYSTEM: N-type calcium channel (NTCC) (Homo sapiens, UniProt Q00975)
# Construct: host or cells: IMR32 cells differentiated with dibutyryl cAMP and bromodeoxyuridine
# PROCEDURE_SUMMARY: FLIPR calcium mobilization assay for N-type calcium channel (differentiated IMR32 cells)
# Assay type: cell-based
# TEST_PARAMETERS: about 1.0 μM or less; calcium mobilization and/or electrophysiological assay
pIC50: −log10 of the molar value.
QUANTITY_MEASURED: pIC50

Take a look at these entries with their results.
O=S(=O)(c1ccc(OC(F)F)cc1)N1CCC(=NOC(c2ccc(F)cc2)c2ccc(F)cc2)CC1 [Example 232] | ≥ 6.00
O=S(=O)(c1ccsc1)N1CCC(=NOC(c2ccc(F)cc2)c2ccc(F)cc2)CC1 [Example 287] | ≥ 6.00

Then this molecule:
pIC50 in this record for N#Cc1cccc(CON=C2CCN(S(=O)(=O)c3ccc(F)c(F)c3)CC2)c1 [Example 210] : ≥ 6.00

----------
# TARGET_OR_TEST_SYSTEM: L-type calcium channel (LTCC) subunits (α1c, α2δ, and β1) (Rattus norvegicus, UniProt P22002)
# Construct: pcDNA6.2DEST for α1c, pcDNA3.2DEST for β1, pcDNA3.1-Zeo for α2δ
# Sequence (P22002 whole entry): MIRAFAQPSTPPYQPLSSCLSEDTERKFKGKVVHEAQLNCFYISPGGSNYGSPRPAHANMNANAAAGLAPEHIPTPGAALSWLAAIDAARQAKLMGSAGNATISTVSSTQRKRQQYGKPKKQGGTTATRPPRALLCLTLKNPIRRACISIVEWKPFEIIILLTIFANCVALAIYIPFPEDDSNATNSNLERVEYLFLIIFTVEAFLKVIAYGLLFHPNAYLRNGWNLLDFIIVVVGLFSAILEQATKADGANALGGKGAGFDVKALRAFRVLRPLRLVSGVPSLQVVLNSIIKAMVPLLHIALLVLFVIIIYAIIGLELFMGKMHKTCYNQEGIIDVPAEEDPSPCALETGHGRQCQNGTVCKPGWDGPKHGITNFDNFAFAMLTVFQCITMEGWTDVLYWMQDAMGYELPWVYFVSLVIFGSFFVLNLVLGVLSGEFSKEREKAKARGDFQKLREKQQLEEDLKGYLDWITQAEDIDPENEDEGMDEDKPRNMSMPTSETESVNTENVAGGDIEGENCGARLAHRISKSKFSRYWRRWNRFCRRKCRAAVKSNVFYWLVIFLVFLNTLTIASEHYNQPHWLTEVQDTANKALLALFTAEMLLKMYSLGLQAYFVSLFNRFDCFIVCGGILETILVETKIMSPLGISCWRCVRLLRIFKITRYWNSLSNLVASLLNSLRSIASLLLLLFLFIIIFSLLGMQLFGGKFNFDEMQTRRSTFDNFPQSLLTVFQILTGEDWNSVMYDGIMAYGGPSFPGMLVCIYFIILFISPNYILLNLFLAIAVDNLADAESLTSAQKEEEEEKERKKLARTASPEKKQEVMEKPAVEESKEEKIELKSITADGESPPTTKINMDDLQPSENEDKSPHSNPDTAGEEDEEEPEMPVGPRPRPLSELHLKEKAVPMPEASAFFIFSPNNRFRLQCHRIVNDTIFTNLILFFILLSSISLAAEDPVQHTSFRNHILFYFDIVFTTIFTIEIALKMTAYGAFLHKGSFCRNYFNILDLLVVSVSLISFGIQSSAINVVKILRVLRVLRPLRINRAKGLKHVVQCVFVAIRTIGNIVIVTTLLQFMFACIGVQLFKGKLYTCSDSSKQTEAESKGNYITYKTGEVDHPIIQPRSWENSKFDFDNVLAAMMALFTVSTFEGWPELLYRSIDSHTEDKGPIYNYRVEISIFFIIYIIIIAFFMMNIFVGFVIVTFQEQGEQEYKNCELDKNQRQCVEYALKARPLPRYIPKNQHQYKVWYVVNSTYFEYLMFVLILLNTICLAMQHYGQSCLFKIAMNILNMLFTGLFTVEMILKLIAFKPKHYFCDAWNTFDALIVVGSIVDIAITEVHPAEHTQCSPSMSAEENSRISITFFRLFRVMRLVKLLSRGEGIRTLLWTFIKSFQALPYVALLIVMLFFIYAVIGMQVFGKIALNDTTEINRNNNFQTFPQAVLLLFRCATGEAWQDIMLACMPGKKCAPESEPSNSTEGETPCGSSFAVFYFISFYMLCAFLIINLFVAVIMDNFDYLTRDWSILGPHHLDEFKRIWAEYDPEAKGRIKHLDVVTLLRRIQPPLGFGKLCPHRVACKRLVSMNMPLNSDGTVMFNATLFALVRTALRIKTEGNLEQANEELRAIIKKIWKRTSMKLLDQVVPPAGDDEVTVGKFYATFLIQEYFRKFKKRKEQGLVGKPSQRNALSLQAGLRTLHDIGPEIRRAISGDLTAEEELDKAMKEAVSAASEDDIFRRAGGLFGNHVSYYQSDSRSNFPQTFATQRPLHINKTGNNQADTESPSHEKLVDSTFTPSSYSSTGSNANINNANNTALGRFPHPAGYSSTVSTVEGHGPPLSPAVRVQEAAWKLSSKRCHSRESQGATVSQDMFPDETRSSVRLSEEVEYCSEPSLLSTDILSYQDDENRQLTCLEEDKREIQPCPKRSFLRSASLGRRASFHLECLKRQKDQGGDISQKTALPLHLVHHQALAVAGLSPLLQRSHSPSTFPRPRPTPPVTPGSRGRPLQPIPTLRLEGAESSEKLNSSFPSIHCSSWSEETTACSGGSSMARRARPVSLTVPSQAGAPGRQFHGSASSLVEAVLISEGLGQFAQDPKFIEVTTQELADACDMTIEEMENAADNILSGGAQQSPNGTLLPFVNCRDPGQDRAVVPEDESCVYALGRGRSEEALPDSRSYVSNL
# PROCEDURE_SUMMARY: FLIPR calcium mobilization assay for L-type calcium channel (HEK293 cells expressing recombinant rat LTCC subunits)
# TEST_PARAMETERS: calcium mobilization in vitro assay, L-type calcium channel blockers
Structures can show the parent of a compound that is named as a salt.
QUANTITY_MEASURED: IC50 (µM)

A. CN[C@@H](CC(C)C)C(=O)N1CCC(=NOCc2ccc(Cl)cc2)CC1 [Example 4, hydrochloride]
B. CC(C)C[C@H](N)C(=O)N1CCC(=NOCc2cccc(C(F)(F)F)c2)CC1 [Example 8, hydrochloride]
Data request: Among A and B , whose measured IC50 is the smaller figure? When you have decided, please share the label of that item.
Data returned: B
(B: 9.6 µM, A: 15.2 µM)
